ASSAYED_TARGET: Human M4 (Homo sapiens, UniProt P08173)
Construct: expressed in transfected cells
Sequence (P08173 whole entry): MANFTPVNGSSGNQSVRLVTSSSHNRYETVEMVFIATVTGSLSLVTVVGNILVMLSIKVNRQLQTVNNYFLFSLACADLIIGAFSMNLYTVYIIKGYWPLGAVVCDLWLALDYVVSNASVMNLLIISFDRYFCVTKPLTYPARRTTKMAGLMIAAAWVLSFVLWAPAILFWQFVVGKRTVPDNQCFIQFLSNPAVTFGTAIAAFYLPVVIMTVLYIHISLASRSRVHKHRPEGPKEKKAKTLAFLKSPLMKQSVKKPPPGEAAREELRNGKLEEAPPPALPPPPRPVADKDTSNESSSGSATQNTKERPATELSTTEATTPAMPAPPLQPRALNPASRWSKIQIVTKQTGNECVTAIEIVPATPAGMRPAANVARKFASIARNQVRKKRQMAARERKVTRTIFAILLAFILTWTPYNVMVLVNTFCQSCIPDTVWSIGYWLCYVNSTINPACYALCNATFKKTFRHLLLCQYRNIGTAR
METHOD_NOTES: mAChR M4 cell-based functional assay (calcium flux, PAM mode)
SETUP_CONDITIONS: CHO-K1, % ACh maximum at 30 μM; hM4-Gqi5 CHO-K1 cells
OUTCOME_MEASURE: Emax at 30 µM (%)

smiles_record=[2H]C1(Oc2ccc3c(c2)OCCO3)CCN(c2nn3c(=O)ccnc3c(C)c2C)CC1 observed_value=96

[A] COc1ncc(OC2CCN(c3nn4c(=O)ccnc4cc3C)CC2)cc1C
[B] [2H]C1([2H])Oc2ccc(O[C@H]3CCN(c4nn5c(=O)ccnc5cc4C)[C@H](C)C3)cc2OC1([2H])[2H]
In: From the recorded data, which exceeds the other in Emax at 30 µM: A or B ? Label of pick, please.
Out: B
(B: 120%, A: 84%)

[I] COCc1ccc(OC2CCN(c3nn4c(=O)ccnc4cc3C)CC2)cn1
[II] CNc1c(C)c(N2CCC(Oc3ccc4c(c3)OCCO4)CC2)nn2c(=O)ccnc12
In: From the recorded data, which exceeds the other in Emax at 30 µM: I or II ? Label of pick, please.
Out: II
(II: 89%, I: 60%)

* * *

ASSAYED_TARGET: Human M4 (Homo sapiens, UniProt P08173)
METHOD_NOTES: mAChR M4 cell-based functional assay (calcium flux, PAM mode)
SETUP_CONDITIONS: hM4-Gqi5 CHO-K1 cells; concentration-dependent increase in the EC20 acetylcholine response
pEC50: −log10 of the molar value.
OUTCOME_MEASURE: pEC50

Before answering, review these 3 worked examples.
smiles_record=[2H]C1([2H])Oc2ccc(O[C@H]3CCN(c4nn5c(=O)cc(COC)nc5c(C)c4C)C[C@H]3F)cc2OC1([2H])[2H] observed_value=7.03
smiles_record=[2H]C1([2H])Oc2ccc(OC3CCN(c4nn5c(=O)cc(C(C)C)nc5c(C)c4C)CC3)cc2OC1([2H])[2H] observed_value=6.88
smiles_record=[2H]C1([2H])Oc2cc(OC3CCN(c4nn5c(=O)ccnc5cc4C)CC3)cc(F)c2OC1([2H])[2H] observed_value=7.14

[I] [2H]C1([2H])Oc2ccc(OC3CCN(c4nn5c(=O)cc(C6CC6)nc5cc4C)CC3)cc2OC1([2H])[2H]
[II] Cc1cc2nccc(=O)n2nc1N1CC[C@@H](Oc2ccc3c(c2)OCCO3)[C@H](F)C1
In: # query: argmin of pEC50 over I and II Label of pick, please.
Out: II

* * *

ASSAYED_TARGET: Human M4 (Homo sapiens, UniProt P08173)
Construct: expressed in transfected cells
METHOD_NOTES: mAChR M4 cell-based functional assay (calcium flux, PAM mode)
SETUP_CONDITIONS: CHO-K1, % ACh maximum at 30 μM; hM4-Gqi5 CHO-K1 cells
OUTCOME_MEASURE: Emax at 30 µM (%)

smiles_record=[2H]C1(Oc2ccc3c(c2)OCO3)CCN(c2nn3c(=O)cc(C)nc3cc2C)CC1 assayed_target="Human M4 (Homo sapiens, UniProt P08173)" observed_value=88
smiles_record=Cc1c(N2CCC(Oc3ccc(F)cc3)CC2)nn2c(=O)ccnc2c1C assayed_target="Human M4 (Homo sapiens, UniProt P08173)" observed_value=89
smiles_record=[2H]C1([2H])Oc2ccc(OC3CCN(c4nn5c(=O)cc(C(C)C)nc5c(C)c4C)CC3)cc2OC1([2H])[2H] assayed_target="Human M4 (Homo sapiens, UniProt P08173)" observed_value=90
